assay-info: Elution rate in aqueous solutions of various pH and physiological saline solution
Assay type: physicochemical
stated-conditions: physiological saline solution; general description
readout-name: elution rate in physiological saline solution (summary)

>>> measured_value("CO[C@@H]1[C@@H](O[C@@H]2O[C@H](C)[C@@H](O[C@H]3C[C@@](C)(O)[C@@H](OC(=O)CC(C)C)[C@H](C)O3)[C@H](N(C)C)[C@H]2O)[C@@H](CC=O)C[C@@H](C)[C@@H](O)/C=C/C=C/C[C@@H](C)OC(=O)C[C@H]1OC(C)=O")
"less than 15%"
>>> measured_value("CCCC(=O)OC1C(C)OC(OC2C(C)OC(OC3C(CC=O)CC(C)C(O)/C=C/C=C/CC(C)OC(=O)CC(O)C3OC)C(O)C2N(C)C)CC1(C)OC(=O)CC (centres unmarked)")
"less than 15%"

----------
assay-info: Stability in Japan Pharmacopoeia 1st solution (pH 1.2) at 37° C., with or without stabilizer (TLC densitometry, 232 nm)
Assay type: physicochemical
stated-conditions: jp 1st solution, pH 1.2, 1st solution pH 1.2, 37° C., 60 minutes, no stabilizer; read-out: residual amount after contact with 1st solution, 60 minutes
readout-name: remaining at 1 h (%)
Your answer is read as %, so omit the unit and give the number.

For record CCC(=O)OC1CC(=O)OC(C)C/C=C/C=C/C(O)C(C)CC(CC=O)C(OC2OC(C)C(OC3CC(C)(O)C(OC(=O)CC)C(C)O3)C(N(C)C)C2O)C1OC (stereo not shown) the listed remaining at 1 h is 35

----------
assay-info: Stability in Japan Pharmacopoeia 1st solution (pH 1.2) at 37° C., with or without stabilizer (TLC densitometry, 232 nm)
Assay type: physicochemical
stated-conditions: jp 1st solution, pH 1.2, residual amount after contact with 1st solution, 60 minutes
readout-name: remaining at 1 h (%)
Your answer is read as %, so omit the unit and give the number.

For record CO[C@@H]1[C@@H](O[C@@H]2O[C@H](C)[C@@H](O[C@H]3C[C@@](C)(O)[C@@H](OC(=O)CC(C)C)[C@H](C)O3)[C@H](N(C)C)[C@H]2O)[C@@H](CC=O)C[C@@H](C)[C@@H](O)/C=C/C=C/C[C@@H](C)OC(=O)C[C@H]1OC(C)=O [josamycin] the listed remaining at 1 h is 46.7

----------
assay-info: Elution rate in aqueous solutions of various pH and physiological saline solution
Format: physicochemical
stated-conditions: physiological saline solution; after 15-minute stirring; 37° C.
readout-name: elution rate, physiological saline solution (%)

>>> measured_value("CO[C@@H]1[C@@H](O[C@@H]2O[C@H](C)[C@@H](O[C@H]3C[C@@](C)(O)[C@@H](OC(=O)CC(C)C)[C@H](C)O3)[C@H](N(C)C)[C@H]2O)[C@@H](CC=O)C[C@@H](C)[C@@H](O)/C=C/C=C/C[C@@H](C)OC(=O)C[C@H]1OC(C)=O")
15
>>> measured_value("CCCC(=O)OC1C(C)OC(OC2C(C)OC(OC3C(CC=O)CC(C)C(O)/C=C/C=C/CC(C)OC(=O)CC(O)C3OC)C(O)C2N(C)C)CC1(C)OC(=O)CC (stereo not shown)")
10

I = CCC(=O)O[C@H]1/C=C/C=C/C[C@@H](C)OC(=O)C[C@@H](OC(C)=O)[C@H](OC)[C@@H](O[C@@H]2O[C@H](C)[C@@H](O[C@H]3C[C@@](C)(O)[C@@H](OC(=O)CC(C)C)[C@H](C)O3)[C@H](N(C)C)[C@H]2O)[C@@H](CC=O)C[C@H]1C
II = CCC(=O)OC1CC(=O)OC(C)C/C=C/C=C/C(O)C(C)CC(CC=O)C(OC2OC(C)C(OC3CC(C)(O)C(OC(=O)CC)C(C)O3)C(N(C)C)C2O)C1OC (stereo not shown)
In: Look at I and II . Which one has the lower recorded elution rate, physiological saline solution number? Answer by quoting the chosen item's label.
Out: I
